runDescription: Probe fluorescence ratio response to linolenic acid relative to ADIFAB2
Format: binding
assaySetup: Table 5
We begin with a simple list: items and their reported ΔR/DRAΔ2 LNA.
experimentalEndpoint: ΔR/DRAΔ2 LNA

[[record]]
molecule = "L2P17H10: FABP probe, substitutions M18G G31F A73L vs SEQ ID NO: 2 (protein, listed as Rattus norvegicus, PEPTIDE (1)...(131) wild-type rat intestinal fatty acid binding protein) AFDGTWKVDRNENYEKFGEKMGINVVKRKLFAHDNLKLTITQEGNKFTVKESSNFRNIDVVFELGVDFAYSLLDGTELTGTWTMEGNKLVGKFKRVDNGKELIAVREISGNELIQTYTYEGVEAKRIFKKE"
experimentalendpoint = "ΔR/DRAΔ2 LNA"
readoutnumber = 1.2

[[record]]
molecule = "L2P18H12: FABP probe, substitutions M18I G31V A73G vs SEQ ID NO: 2 (protein, listed as Rattus norvegicus, PEPTIDE (1)...(131) wild-type rat intestinal fatty acid binding protein) AFDGTWKVDRNENYEKFIEKMGINVVKRKLVAHDNLKLTITQEGNKFTVKESSNFRNIDVVFELGVDFAYSLGDGTELTGTWTMEGNKLVGKFKRVDNGKELIAVREISGNELIQTYTYEGVEAKRIFKKE"
experimentalendpoint = "ΔR/DRAΔ2 LNA"
readoutnumber = 1.9

[[record]]
molecule = "L2P16A3: FABP probe, substitutions M18I G31L A73G vs SEQ ID NO: 2 (protein, listed as Rattus norvegicus, PEPTIDE (1)...(131) wild-type rat intestinal fatty acid binding protein) AFDGTWKVDRNENYEKFIEKMGINVVKRKLLAHDNLKLTITQEGNKFTVKESSNFRNIDVVFELGVDFAYSLGDGTELTGTWTMEGNKLVGKFKRVDNGKELIAVREISGNELIQTYTYEGVEAKRIFKKE"
experimentalendpoint = "ΔR/DRAΔ2 LNA"
readoutnumber = 1.5

[[record]]
molecule = "L2P4C5: FABP probe, substitutions M18I G31Y vs SEQ ID NO: 2 (protein, listed as Rattus norvegicus, PEPTIDE (1)...(131) wild-type rat intestinal fatty acid binding protein) AFDGTWKVDRNENYEKFIEKMGINVVKRKLYAHDNLKLTITQEGNKFTVKESSNFRNIDVVFELGVDFAYSLADGTELTGTWTMEGNKLVGKFKRVDNGKELIAVREISGNELIQTYTYEGVEAKRIFKKE"
experimentalendpoint = "ΔR/DRAΔ2 LNA"
readoutnumber = 2.8

[[record]]
molecule = "L2P21G3: FABP probe, substitutions M18I G31M F55M vs SEQ ID NO: 2 (protein, listed as Rattus norvegicus, PEPTIDE (1)...(131) wild-type rat intestinal fatty acid binding protein) AFDGTWKVDRNENYEKFIEKMGINVVKRKLMAHDNLKLTITQEGNKFTVKESSNMRNIDVVFELGVDFAYSLADGTELTGTWTMEGNKLVGKFKRVDNGKELIAVREISGNELIQTYTYEGVEAKRIFKKE"
experimentalendpoint = "ΔR/DRAΔ2 LNA"
readoutnumber = 1.4

[[record]]
molecule = "L2P21C1: FABP probe, substitutions M18I G31Y A73V vs SEQ ID NO: 2 (protein, listed as Rattus norvegicus, PEPTIDE (1)...(131) wild-type rat intestinal fatty acid binding protein) AFDGTWKVDRNENYEKFIEKMGINVVKRKLYAHDNLKLTITQEGNKFTVKESSNFRNIDVVFELGVDFAYSLVDGTELTGTWTMEGNKLVGKFKRVDNGKELIAVREISGNELIQTYTYEGVEAKRIFKKE"
experimentalendpoint = "ΔR/DRAΔ2 LNA"
readoutnumber = 3.1

[[record]]
molecule = "L2P12G9: FABP probe, substitutions M18L A73V vs SEQ ID NO: 2 (protein, listed as Rattus norvegicus, PEPTIDE (1)...(131) wild-type rat intestinal fatty acid binding protein) AFDGTWKVDRNENYEKFLEKMGINVVKRKLGAHDNLKLTITQEGNKFTVKESSNFRNIDVVFELGVDFAYSLVDGTELTGTWTMEGNKLVGKFKRVDNGKELIAVREISGNELIQTYTYEGVEAKRIFKKE"
experimentalendpoint = "ΔR/DRAΔ2 LNA"
readoutnumber = 0.0

[[record]]
molecule = "L2P12C5: FABP probe, substitutions M18I G31I F55M A73I vs SEQ ID NO: 2 (protein, listed as Rattus norvegicus, PEPTIDE (1)...(131) wild-type rat intestinal fatty acid binding protein) AFDGTWKVDRNENYEKFIEKMGINVVKRKLIAHDNLKLTITQEGNKFTVKESSNMRNIDVVFELGVDFAYSLIDGTELTGTWTMEGNKLVGKFKRVDNGKELIAVREISGNELIQTYTYEGVEAKRIFKKE"
experimentalendpoint = "ΔR/DRAΔ2 LNA"
readoutnumber = 1.7

[[record]]
molecule = "L2P2E11: FABP probe, substitutions M18I G31F vs SEQ ID NO: 2 (protein, listed as Rattus norvegicus, PEPTIDE (1)...(131) wild-type rat intestinal fatty acid binding protein) AFDGTWKVDRNENYEKFIEKMGINVVKRKLFAHDNLKLTITQEGNKFTVKESSNFRNIDVVFELGVDFAYSLADGTELTGTWTMEGNKLVGKFKRVDNGKELIAVREISGNELIQTYTYEGVEAKRIFKKE"
experimentalendpoint = "ΔR/DRAΔ2 LNA"
readoutnumber = 2.8


Source: patent US20060257938A1
